Reference source: patent US8450352B2

pIC50: −log10 of the molar value. Where a name gives a salt, the structure may show the parent alone.
Entries below carry reported pIC50 on human PDE4D (HPDE4D) (Homo sapiens).
Sequence (Q08499 whole entry): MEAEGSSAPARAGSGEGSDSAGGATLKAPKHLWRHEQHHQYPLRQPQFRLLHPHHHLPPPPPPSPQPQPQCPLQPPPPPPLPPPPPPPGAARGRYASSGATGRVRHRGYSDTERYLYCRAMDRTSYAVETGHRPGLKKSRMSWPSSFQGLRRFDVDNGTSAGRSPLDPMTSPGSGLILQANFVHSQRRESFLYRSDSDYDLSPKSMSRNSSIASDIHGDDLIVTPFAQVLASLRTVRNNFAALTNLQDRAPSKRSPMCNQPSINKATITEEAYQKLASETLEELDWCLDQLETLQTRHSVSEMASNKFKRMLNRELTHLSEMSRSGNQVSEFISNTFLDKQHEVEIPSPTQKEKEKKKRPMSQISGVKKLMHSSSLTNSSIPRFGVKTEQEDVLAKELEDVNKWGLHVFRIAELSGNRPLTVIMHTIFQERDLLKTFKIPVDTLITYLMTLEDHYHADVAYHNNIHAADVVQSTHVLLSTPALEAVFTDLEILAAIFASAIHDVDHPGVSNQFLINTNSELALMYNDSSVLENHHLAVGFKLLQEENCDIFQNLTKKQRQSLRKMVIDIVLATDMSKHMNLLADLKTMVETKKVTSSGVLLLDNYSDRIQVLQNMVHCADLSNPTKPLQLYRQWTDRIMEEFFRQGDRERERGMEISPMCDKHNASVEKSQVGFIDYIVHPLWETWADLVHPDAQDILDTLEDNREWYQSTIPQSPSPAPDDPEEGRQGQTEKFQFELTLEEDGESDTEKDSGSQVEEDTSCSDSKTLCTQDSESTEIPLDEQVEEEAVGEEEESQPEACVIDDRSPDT
QUANTITY_NAME: pIC50

Use these answered entries as a reference point.
• CCOc1ccc(-c2nc(CCC(O)c3ncccc3OC)cs2)cc1OCC (stereo not shown) [Example 187, dihydrochloride] = 8.18
• CCOc1ccc(-c2nc(CCCc3ncccc3OC)cs2)cc1OCC.Cl.Cl [Example 238, dihydrochloride] = 8.14

A. CCOc1ccc(-c2nc(CCC(=O)c3ccccc3C#N)cs2)cc1OCC
B. CCOc1ccc(-c2nc(CCC(=O)c3ncccc3OCC)cs2)cc1OCC
Which value of pIC50 is greater, the one for A or the one for B ? I would appreciate it if you answered with the label of your choice.
B
(B: 9.70, A: 8.01)
